assay.target: the molecule itself
assay.info: SEC; Superose 6 Increase 10/300 GL; 50 mM Tris-HCl (pH 8.0), 300 mM NaCl, 10 mM MgCl2; oligomeric state calculated from elution volumes of proteins of known size
// values below are reported stoichiometry N

protein	stoichiometry N
KpUGP K10R (enzyme, UDP-glucose pyrophosphorylase (galU gene product) of K. pneumoniae DSM 30104; mutant of Strep-KpUGP; tag as in m1; no cleavage described) MAALNSKVRRAVIPVAGLGTRMLPATKAIPKEMLPLVDKPLIQYVVNECIAAGITEIVLVTHSSKNSIENHFDTSFELEAMLEKRVKRQLLEEVQSICPPHVTIMQVRQGLAKGLGHAVLCAHPVVGDEPVAVILPDVILDEYESDLSRDNLAEMISRFDETGASQIMVEPVEDVTAYGVVDCKGESLKPGESVPMVGVVEKPKADVAPSNLAVVGRYVLSADIWPLLAKTPPGAGDEIQLTDAIDMLIEKETVEAYHMKGKSHDCGNKLGYMQAFVEYGIRHKTLGDDFKAWLETAVAK	4.5
KpUGP R108K (enzyme, UDP-glucose pyrophosphorylase (galU gene product) of K. pneumoniae DSM 30104; mutant of Strep-KpUGP; tag as in m1; no cleavage described; also called R108R (as printed once in the text)) MAALNSKVRKAVIPVAGLGTRMLPATKAIPKEMLPLVDKPLIQYVVNECIAAGITEIVLVTHSSKNSIENHFDTSFELEAMLEKRVKRQLLEEVQSICPPHVTIMQVKQGLAKGLGHAVLCAHPVVGDEPVAVILPDVILDEYESDLSRDNLAEMISRFDETGASQIMVEPVEDVTAYGVVDCKGESLKPGESVPMVGVVEKPKADVAPSNLAVVGRYVLSADIWPLLAKTPPGAGDEIQLTDAIDMLIEKETVEAYHMKGKSHDCGNKLGYMQAFVEYGIRHKTLGDDFKAWLETAVAK	2.4
